Cited source: the supplement of paper PMC4932681

Give measured drug sensitivity score for each item. Keep answers brief.
Test system: MCF-7
assay-details: drug sensitivity score (DSS) (DSS (dimensionless)); higher = more sensitive; extreme values may be limits of the assay
run-parameters: 4-OH-tamoxifen in medium 0 µM; 72 h
Structures can show the parent of a compound that is named as a salt.
Just the number, please, no unit attached.

Q. Recorded drug sensitivity score of "CC(C)Cn1cnc2c(N)nc3ccccc3c21" , please.
A. 0

Q. Moving on to the next molecule: "O=C(/C=C/c1cccc(S(=O)(=O)Nc2ccccc2)c1)NO"
A. 14.7

Q. Please give the result for "Oc1ncnc2[nH]ncc12" too.
A. 0

Q. What do you have for "CN(C)C/C=C/C(=O)Nc1cc2c(Nc3ccc(F)c(Cl)c3)ncnc2cc1O[C@H]1CCOC1" ?
A. 0

Q. Repeat for the following molecule: O=C(/C=C/c1cccnc1)NCCCCC1CCN(C(=O)c2ccccc2)CC1 [Daporinad (FK-866 HCl)]
A. 15.8
